# target: Pro-neuregulin-1, membrane-bound isoform (Homo sapiens)
# method description: NRG1 binders on small-molecule microarrays, primary screen, psychiatric disease protein project, biochemical, small-molecule microarray, fluorescence 635/667 (AID 1075);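 further: score combines 667 nm spot fluorescence with signal to noise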
# condition notes: NRG1 binding, 635 nm fluorescence, higher = more signal
Label Not met if composite z-score falls below 0.1; label Met in every other case.

1. CC=CC1=C(CO)[C@H](O)[C@H]2O[C@H]2[C@H]1O : Not met
2. COC(=O)[C@@]1(Cc2ccc(OC)cc2)[C@H]2c3cc(C(=O)N4CCCC4)n(Cc4cc(F)c(F)c(F)c4)c3C[C@H]2CN1C(=O)c1ccccc1 : Met
3. O=C(NN=C1C[C@@H](O)[C@@H](O)[C@@H]2[C@@H]3C(=O)N(c4ccc(F)cc4F)C(=O)[C@@H]3CC[C@@H]12)OCc1ccccc1 : Met
4. O=C1[C@H]2[C@H]3[C@H](O)[C@H](O)CC(=NO[C@@H]4O[C@H](CO)[C@@H](O)[C@H](O)[C@H]4O)[C@@H]3CC[C@H]2C(=O)N1Cc1ccc2c(c1)OCO2 : Met
5. CC[C@@H](c1ccccc1)n1c(=O)n2n(c1=O)[C@H]1[C@H](O)[C@@H]3O[C@@H]3C(=NOCC=C(C)CCC=C(C)C)[C@H]1CC2 : Met
6. COC(=O)[C@@H]1N=C(c2ccc(OCCCO)cc2)O[C@@H]1c1ccccc1N=[N+]=[N-] : Met
7. CCCC[C@@H]1C[C@H]1[C@@H](NS(=O)(=O)c1cccc2cccnc12)c1ccc(-c2ccccc2)cc1 : Not met

###

# method description: compound binding in COS7 lysate, probe aLAP1, primary screen, cell lysate, small-molecule microarray (AID 1124);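 further: lysate comes from COS7 cells expressing LAP1 and is applied at 0.3 µg/mL; score merges spot fluorescence near 667 nm with signal-to-noise over triplicate slides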
# condition notes: probe aLAP1, fluorescence, higher = more signal
measure: composite z-score

1. CC(CCN1CCCCc2nc(C)c(C)cc21)=NOC(C)CN1CCCc2nc(C)c(C)cc21 (stereo not given) : 0.257
2. CC(C)NC(=O)[C@@]1(C)c2ccccc2C(=O)N(Cc2cc(F)cc(C(F)(F)F)c2)[C@H]1c1ccc(CO)cc1 : 0.433
3. O=C1CCCC=C1C(O)CCOCc1ccccc1 (stereo not given) : -0.195
4. CCOC(=O)[C@H](Cc1ccccc1)NC(=O)CCC1CC(OC(=O)NCc2ccc3c(c2)OCO3)CC2(CCCC(COC(=O)NCc3ccccc3)O2)O1 (stereo not given in full) : 0.0766
5. COC(=O)CC=C[C@H](C)[C@@H](OCc1ccccc1Br)C(C)C : 0.0326
6. C[C@@H]1C=CCC(=O)OC[C@H](C)C(=O)N[C@@H](C)C(=O)OC1 : 0.369
7. COC(=O)[C@]1(CO)N=C(c2ccc(OCCCO)cc2)O[C@@H]1c1ccccc1N=[N+]=[N-] : 0.758
8. COCC(=C=CC[C@@H](O)c1ccccc1OCCO)CCO : -0.0546
9. C=CCOC(=O)[C@H]1[C@@H]2C(=O)O[C@@H](c3ccccc3)[C@@H](c3ccccc3)N2[C@@H](c2ccc(OCCOC(=O)[C@H]3C[C@H]4C(=O)N[C@@H](Cc5ccccc5)C(=O)N4[C@H]3c3ccc(O)cc3)cc2)[C@]12C(=O)Nc1ccccc12 : 0.832
10. CC(C)C[C@@H]1NC(=O)[C@H]2C[C@@H](C(=O)NCCCCCCN(C)C)[C@@H](c3cccc(OCCO)c3)N2C1=O : 1.44
11. Cc1cc2c(nc1C)CCCN2CC(O)CN1CCN(C)CC1 (stereo not given) : 0.289
12. O=C1[C@H]2[C@H]3[C@H](O)[C@H](O)CC(=NOCc4ccccc4)[C@H]3CC[C@H]2C(=O)N1c1cccc(Oc2ccccc2)c1 : 0.229
13. COc1ccc(COC(=O)NN=C2C[C@@H](O)[C@@H](O)[C@@H]3[C@@H]4C(=O)N(c5ccc(F)cc5F)C(=O)[C@@H]4CC[C@@H]23)cc1 : -0.2
14. CCN1C(=O)[C@H]2[C@H]3[C@H](O)[C@H](O)CC(=NOC[C@@H](C)[C@H](OCc4ccccc4)C(C)C)[C@@H]3CC[C@H]2C1=O : -0.504
15. CN(C)c1ccc(C(O)C2C=CC3C(=O)N(c4ccccc4)C(=O)C3N2Nc2ccccc2F)cc1 (stereo not given) : -0.301
16. COc1ccc(-c2nc3c(c4c2C[C@H](C)OC4)CN(CCC(C)C)CC3)cc1 : -0.177
17. CC(CCN1CCc2nc(-c3ccccc3)c(-c3ccccc3)cc2C1)=NOC[C@@H](C)[C@H](OCc1ccccc1)C(C)C : -0.2
18. C#CCCCON=C1C[C@@H](O)[C@@H](O)[C@@H]2[C@@H]3C(=O)N(CCC(=O)OCC)C(=O)[C@@H]3CC[C@@H]12 : 1.05
19. CCOC(=O)C[C@H]1[C@H](OC(=O)c2cc3ccccc3oc2=O)[C@@H](NC(=O)c2ccc3ccccc3n2)c2cc(OCCCO)ccc2N1C(=O)c1ccccc1 : 0.668
20. COC(=O)CC=C[C@@H](C)[C@@H](C=NO[C@@H](C)c1cc(-c2c(C)cc(C)cc2C)no1)OC : -0.52
21. O=C1C[C@]2(c3ccc([N+](=O)[O-])cc3)C(=O)N(CCN3CCOCC3)c3cc(CO)ccc3[C@H]2N1CC12CC3CC(CC(C3)C1)C2 : 0.713
22. C[C@@H]1C=CCC(=O)OC[C@H](C)C(=O)N2CCC[C@H]2C(=O)OC1 : 0.0742
23. CC(C)(C)N1C(=O)[C@H]2[C@H]3[C@H](O)[C@H](O)CC(=NO[C@@H]4O[C@H](CO)[C@@H](O)[C@H](O)[C@H]4O)[C@@H]3CC[C@H]2C1=O : 0.649
24. CCCNC(=O)OC[C@H]1O[C@H](CCON=CC[C@@H]2C=C[C@H](OC(C)=O)[C@@H](COC(C)=O)O2)C=C[C@@H]1Oc1ccc(OC)cc1 : 0.394
25. CCOc1ccc(N2C(=O)/C(=C/C=C/c3ccccc3OC)S(=O)(=O)C2c2cccc([N+](=O)[O-])c2)cc1 (stereo not given) : 0.32
26. COc1ccc(O[C@@H]2[C@H](O)CO[C@H]2C=CC#Cc2ccccc2)cc1 : 0.0594
27. COc1ccc(O[C@H]2C=C[C@@H](c3ccccc3)O[C@@H]2COC(=O)CCC(C)=NOCC[C@@H]2C=C[C@H](OC(C)=O)[C@@H](COC(C)=O)O2)cc1 : 0.203
28. O=C1[C@H]2[C@H]3[C@H](O)[C@H](O)CC(=NOC[C@@H](O)COCc4ccco4)[C@H]3CC[C@H]2C(=O)N1C1CCCCC1 : -0.342
29. CC(=O)OC[C@H]1O[C@H](CC=NOC[C@@H](C)[C@H](OCc2ccccc2)C(C)C)C=C[C@@H]1OC(C)=O : -0.223
30. C[C@@H]1CC[C@H]2C(=O)O[C@H](COc3ccc(C(C)(C)C)cc3)CN2[C@H]1c1ccc(Br)cc1 : 0.157

###

# target: NADPH oxidase 4 (Homo sapiens) (UniProt Q9NPH5)
# Sequence (Q9NPH5 whole entry, looked up): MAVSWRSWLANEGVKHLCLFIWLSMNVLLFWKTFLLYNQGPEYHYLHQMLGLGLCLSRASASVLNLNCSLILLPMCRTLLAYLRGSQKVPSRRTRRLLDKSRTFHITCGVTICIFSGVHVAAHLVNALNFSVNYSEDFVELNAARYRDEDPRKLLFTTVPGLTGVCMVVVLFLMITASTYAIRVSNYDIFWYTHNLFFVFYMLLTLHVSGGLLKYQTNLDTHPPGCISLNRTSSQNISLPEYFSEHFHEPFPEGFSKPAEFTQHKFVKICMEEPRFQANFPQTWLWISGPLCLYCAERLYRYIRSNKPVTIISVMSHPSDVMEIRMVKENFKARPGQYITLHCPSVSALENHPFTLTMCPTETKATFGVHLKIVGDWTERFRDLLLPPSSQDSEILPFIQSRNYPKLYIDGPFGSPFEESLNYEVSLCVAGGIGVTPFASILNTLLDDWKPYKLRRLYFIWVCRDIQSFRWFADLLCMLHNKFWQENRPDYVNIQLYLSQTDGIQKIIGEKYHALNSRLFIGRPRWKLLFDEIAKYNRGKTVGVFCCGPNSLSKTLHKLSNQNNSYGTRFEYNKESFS
# method description: NOX4-dependent H2O2 signal modulators, primary screen, NOX inhibitor project, cell-based, HEK293-NOX4, tetracycline-induced, Amplex Red fluorescence (AID 1160)
# condition notes: 45 min, higher = more signal, called active from +8 up or from −8 down
Parameter z-score: see the listing below.
measure: z-score

1) CC(C)NC(=O)[C@@]1(C)c2ccccc2C(=O)N(Cc2cc(F)cc(C(F)(F)F)c2)[C@H]1c1ccc(CO)cc1 : 0.696
2) CC(C)=NOCc1cccc(-c2cc(-c3ccccc3)no2)c1 : 0.439
3) CCCC[C@@H]1C[C@H]1[C@@H](NS(=O)(=O)c1cccc2cccnc12)c1ccc(-c2ccccc2)cc1 : -1.29
4) COCCCNC(=O)[C@@]1(CCS(=O)(=O)c2ccccc2)N=C(c2ccc(OCCCO)cc2)O[C@H]1c1ccccc1 : 1.71
5) CCN1C(=O)[C@H]2[C@H]3[C@H](O)C=CC(=O)[C@@H]3CC[C@H]2C1=O : -0.0152
6) CCOC(=O)[C@H](CC(C)C)NC(=O)CCC1CC(OC(=O)NCc2cccc3ccccc23)CC2(CCCC(COC(=O)NCCN3CCOCC3)O2)O1 (stereo not given in full) : 0.647
7) C=CCNC(=O)[C@H]1[C@@H]2C(=O)O[C@@H](c3ccccc3)[C@@H](c3ccccc3)N2[C@@H](c2ccc(O)cc2)[C@]12C(=O)N(C(=O)OCCOC)c1ccc(C#CC3=CCCCC3)cc12 : -0.149
8) COc1cccc([C@@H]2Oc3ccc(Br)cc3C(=O)[C@H]2O)c1 : -1.89
9) C=CC[C@]1(C(=O)NCc2ccccc2)N=C(c2ccc(OCCCO)cc2)O[C@H]1c1ccccc1 : -0.495
10) O=C1[C@H]2[C@H]3[C@H](O)[C@H](O)CC(=NOCc4ccccc4)[C@@H]3CC[C@H]2C(=O)N1C1CCCCC1 : 0.568
11) COC(=O)CC=C[C@@H](C)[C@H](OC)c1ccccc1Br : 0.055
12) CCCNC(=O)[C@@H]1c2ccccc2C(=O)N(c2ccc(C)cn2)[C@H]1c1ccc(CO)cc1 : 0.0822
13) CCN(CC)c1ccc(N2CC=CC34O[C@@H]5/C=C\CCC(C)OC(=O)C5[C@H]3C(=O)N(CCCO)[C@@H]4C2=O)cc1 (stereo not given in full) : -1.51
14) CCOC(=O)CCN1C(=O)[C@H]2[C@H]3[C@H](O)[C@H](O)CC(=NOCc4ccccc4)[C@@H]3CC[C@H]2C1=O : 0.593
15) CC(C)(C)OC(=O)CC[C@]1(C(N)=O)COC(c2ccc(OCCCO)cc2)=N1 : -0.585
16) CO[C@H]([C@@H](C)[C@H](OC)c1ccccc1)[C@H](C)[C@@H](OC)[C@H](C)C(C)=O : 0.0305
17) CC(C)=CCCC(C)=CCON=C1[C@H]2CCn3c(=O)n(Cc4cc5c(cc4Cl)OCO5)c(=O)n3[C@H]2[C@H](O)[C@@H]2O[C@H]12 : -1.12
18) COCCOC(=O)N1C(=O)[C@@]2(c3cc(C#Cc4ccc(OC)cc4)ccc31)[C@H](c1ccc(O)cc1)N1[C@H](c3ccccc3)[C@H](c3ccccc3)OC(=O)[C@H]1[C@@H]2C(N)=O : 0.689
19) CC(CCC(=O)OC[C@H]1O[C@H](C#Cc2ccccc2)C=C[C@@H]1Oc1ccc(C)cc1)=NOC[C@@H](O)[C@H]1O[C@@H]2OC(C)(C)O[C@@H]2[C@H]1O : -0.00198
20) CO[C@@H]1COC(=O)CC=C[C@@H](C)[C@@H]2C=C[C@@H](O)[C@@H](COC(=O)CC=C[C@H]1C)O2 : 0.492
21) COc1ccc(O[C@H]2C=C[C@@H](c3ccccc3)O[C@@H]2COC(=O)CCC(C)=NOCC[C@@H]2C=C[C@H](OC(C)=O)[C@@H](COC(C)=O)O2)cc1 : -0.327
22) CN(C)CCCNC(=O)[C@@H]1c2ccccc2C(=O)N(Cc2cc(F)cc(C(F)(F)F)c2)[C@H]1c1ccc(CO)cc1 : -0.0177
23) CC(C)C[C@@H]1NC(=O)[C@H]2C[C@@H](C(=O)O)[C@@H](c3ccc(O)cc3)N2C1=O : -2.25
24) [N-]=[N+]=Nc1ccccc1C[C@@]1(C(N)=O)N=C(c2ccc(OCCCO)cc2)O[C@@H]1c1ccccc1 : 0.249
25) CCOC(=O)[C@H](Cc1ccccc1)NC(=O)CCC1CC(OC(=O)NCc2ccc3c(c2)OCO3)CC2(CCCC(COC(=O)NCc3ccccc3)O2)O1 (stereo not given in full) : 0.852
26) O=C1C[C@@H](O)[C@@H](O)[C@@H]2[C@@H]3C(=O)N(c4cccc(Oc5ccccc5)c4)C(=O)[C@@H]3CC[C@@H]12 : -0.154
27) CO[C@H]1COC(=O)[C@@H]2CCCN2C(=O)CC=C[C@@H](C)[C@H](OC)COC(=O)CC=C[C@@H]1C : 0.631
28) O=C1C[C@@H](O)[C@@H](O)[C@@H]2[C@@H]3C(=O)N(C4CCCCC4)C(=O)[C@@H]3CC[C@H]12 : 0.386
29) CC(C)[C@@H](OCc1ccccc1)[C@H](C)C=NOC[C@@H](C)[C@H](OCc1ccccc1)C(C)C : -0.184
30) CC(=O)OC[C@H]1O[C@H](CC=NOC[C@@H](C)[C@H](OCc2ccccc2)C(C)C)C=C[C@@H]1OC(C)=O : -0.344
